test: A CellTox Green Cytotoxicity Assay to monitor cytotoxicity in HepG2 cells - 8 hour (AID 1224890); conditions: CellTox Green fluorescence; series mostly up to 76.8 µM; also: % is scaled to controls: 0 for no effect and ±100 for the full control effect; nearly all actives have a fitted effect of over 45% in size
Inconclusive results are not listed. Calls of active or inactive are those of the source. Calls follow the shape of the dose curve; as a rule, active = well fitted activation curve with a large enough effect in the repeat runs; inconclusive = weak or mixed curves; inactive = flat fitted curve, though single readings scatter.
parameter: cytotoxicity increase

chemical_smiles=COc1cc(NS(=O)(=O)c2ccc(N)cc2)nc(OC)n1 parameter="cytotoxicity increase" observed_value=inactive
chemical_smiles=COc1ccc(Br)c(C)c1 parameter="cytotoxicity increase" observed_value=inactive
chemical_smiles=COc1ccc2c(c1OC)C(=O)O[C@@H]2[C@H]1c2c(cc3c(c2OC)OCO3)CCN1C parameter="cytotoxicity increase" observed_value=inactive

* * *

experiment: qHTS RealTime-Glo MT Cell Viability Assay in HEK293 cells - 8 hour (AID 1224887); settings: RealTime-Glo luminescence; series mostly up to 76.8 µM; also: nearly all actives have a fitted effect of over 50% in size
Inconclusive results are not listed. Activity calls are given as the source filed them. Calls follow the shape of the dose curve; as a rule, active = well fitted cell-killing curve with a large enough effect in the repeat runs; inconclusive = weak or mixed curves, or effect the other way; inactive = flat fitted curve, though single readings scatter.
Returns: one label drawn from active, inactive

Field: outcome | Entry: `CC(=O)NCc1c(I)c(NC(C)=O)c(I)c(C(=O)O)c1I`
inactive

Next compound: `CC/C=C\CC1=C(C)CCC1=O`
inactive

Can you check `O=C1O[C@@H]2[C@@H](O)[C@H](O)O[C@@H]2[C@H]1O` next?
inactive

Input `CC(C)(C)c1nnc(NS(=O)(=O)c2ccc(N)cc2)s1`
inactive

Please answer likewise for `CCCCCCOC(=O)CC`
inactive

Same for CC(C(=O)O)c1ccc2c(c1)CC(=O)c1ccccc1S2 (stereo not given)
inactive

What do you get for `CC(=C(CCOC(=O)C(C)C)SSC(CCOC(=O)C(C)C)=C(C)N(C=O)Cc1cnc(C)nc1N)N(C=O)Cc1cnc(C)nc1N` ?
inactive

What about this compound? `C[Si](C)(C)C`
inactive

Moving on to `CCOC(=O)c1ncn2c1CN(C)C(=O)c1cc(F)ccc1-2`
inactive

What about CN=C(NC#N)Nc1ccc(C2=NNC(=O)CC2C)cc1 (stereo not given) ?
inactive

`O=S(=O)(O)c1ccc2cc(O)c(S(=O)(=O)O)cc2c1` ?
inactive

Now the compound `O=S(=O)(O)c1cc(O)c2ccc(Nc3ccccc3)cc2c1`
inactive

Query `CCOC(=O)CC(=O)c1ccccc1` next
inactive

Now consider `CC[C@H](C)C(=O)O[C@H]1C[C@H](O)C=C2C=C[C@H](C)[C@H](CC[C@@H](O)C[C@@H](O)CC(=O)O)[C@H]21` .
inactive

And `O=C(OCc1ccccc1)C(=O)OCc1ccccc1` ?
inactive

And for `CCC(C=O)CC` ?
inactive

Okay, and `Cc1nc2n(c(=O)c1CCN1CCC(c3noc4cc(F)ccc34)CC1)CCC[C@H]2O` ?
active

# iterate: `Nc1ccc2cc(S(=O)(=O)O)cc(O)c2c1`
inactive

Also `CC(C)CCCCOC(=O)c1ccccc1C(=O)OCCCCC(C)C` ?
inactive

Next: `CNC(=O)[C@H]1O[C@@H](n2cnc3c(NCc4cc(Cl)ccc4OCc4cc(C)no4)ncnc32)[C@H](O)[C@@H]1N`
inactive

* * *

molecular target: Aryl hydrocarbon receptor (Homo sapiens) (UniProt P35869); assay: qHTS assay to identify small molecule that activate the aryl hydrocarbon receptor (AhR) signaling pathway (AID 743085); settings: HepG2 AhR-luc (HG2L7.5c1), luciferase, 24 h; series mostly up to 70.3 µM; also: nearly all actives have a fitted effect of over 15% in size;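 as to activation: HG2L7.5c1 human HepG2 liver cells with stably integrated DRE-driven firefly reporter; % is scaled to controls: 0 for no effect and ±100 for the full control effect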
Sequence (P35869 whole entry, looked up): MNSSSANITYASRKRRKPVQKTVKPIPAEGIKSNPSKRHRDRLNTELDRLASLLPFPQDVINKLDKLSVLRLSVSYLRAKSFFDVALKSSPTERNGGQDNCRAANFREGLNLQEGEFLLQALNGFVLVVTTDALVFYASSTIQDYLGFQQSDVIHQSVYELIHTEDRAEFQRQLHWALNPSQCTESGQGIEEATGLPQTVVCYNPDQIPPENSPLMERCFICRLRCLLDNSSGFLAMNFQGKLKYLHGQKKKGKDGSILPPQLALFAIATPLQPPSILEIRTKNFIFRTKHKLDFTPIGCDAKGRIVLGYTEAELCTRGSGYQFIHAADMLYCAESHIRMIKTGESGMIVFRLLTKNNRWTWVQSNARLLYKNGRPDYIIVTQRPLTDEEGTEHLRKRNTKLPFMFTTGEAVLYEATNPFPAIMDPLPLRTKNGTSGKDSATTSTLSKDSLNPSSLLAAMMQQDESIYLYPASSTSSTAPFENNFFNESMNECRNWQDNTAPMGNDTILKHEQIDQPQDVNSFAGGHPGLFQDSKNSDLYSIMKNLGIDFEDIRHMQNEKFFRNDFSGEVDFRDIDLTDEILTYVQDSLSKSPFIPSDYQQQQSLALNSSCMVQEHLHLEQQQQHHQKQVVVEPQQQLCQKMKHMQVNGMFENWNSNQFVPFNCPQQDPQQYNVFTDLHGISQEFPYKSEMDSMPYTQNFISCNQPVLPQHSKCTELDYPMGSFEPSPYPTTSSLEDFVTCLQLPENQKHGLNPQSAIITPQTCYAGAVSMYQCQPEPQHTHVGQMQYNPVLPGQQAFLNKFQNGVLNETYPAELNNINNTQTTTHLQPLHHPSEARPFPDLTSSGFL
Inconclusive results are not listed. The source made the active and inactive calls. The call rests on the fitted dose curve; in most records, active means well fitted activation curve with a large enough effect in the repeat runs; inconclusive means weak or mixed curves; inactive means no such curve, though single readings can be large or run the other way.
The reply should name one outcome from active, inactive

# lookup: test call for CN=C(NC#N)Nc1ccc(C2=NNC(=O)CC2C)cc1 (centres undefined)
inactive

Same lookup for `CC(C)(C)c1cc(CCC(=O)NN)cc(C(C)(C)C)c1O` , please.
inactive

Also, CC(=O)OC(C)OC(=O)C(C)c1ccc(-c2ccccc2)c(F)c1 (centres undefined) please.
inactive

Ok, now `CNS(=O)(=O)CCc1ccc2[nH]cc(C3CCN(C)CC3)c2c1`
inactive

Similarly, COP(=O)(OC)OC(c1ccc(Cl)cc1)P(=O)(OC)OC (centres undefined) ?
inactive

Please do the same for COc1ccc(C2CNC(=O)C2)cc1OC1CCCC1 (centres undefined) as well.
inactive

Another compound to check: `Nc1cccc(O)c1`
active

Next entry: `O=C(O)Cc1cn(-c2ccccc2)nc1-c1ccc(Cl)cc1`
inactive

Next compound up: CC(COC(C)(C)C)OCCCO (centres undefined)
inactive

Consider next the compound `Cc1c(I)c(=O)n(-c2ccccc2)n1C` in the same way.
inactive

Next record, please: `CCCCCCCCCCl`
inactive

And the next one, `O=S(=O)(O)c1cc(O)c2ccc(Nc3ccccc3)cc2c1` ?
inactive

Same thing, different compound: `CCCCCCCCC(=O)Cl`
inactive

Lookup COC(=O)CCc1ccc(OCC(O)CNC(C)C)cc1 (centres undefined)
inactive

Also, `CCN(C)C(=O)Oc1cccc([C@H](C)N(C)C)c1` please.
inactive

Okay, and `CC(=O)N[C@@H](CCC(=O)O)C(=O)O` ?
inactive

Next compound up: `CCC(C=O)CC`
inactive

// query: `CCCC(=O)C(C)=O`
inactive

Now try CC(C)CC(C)CC(C)CC(C)COC(=O)c1ccccc1C(=O)OCC(C)CC(C)CC(C)CC(C)C (centres undefined) .
inactive

What do you get for `CN(CCOc1ccc(NS(C)(=O)=O)cc1)CCc1ccc(NS(C)(=O)=O)cc1` ?
inactive

Moving on to `CC(C)CCCCOC(=O)c1ccccc1C(=O)OCCCCC(C)C`
inactive

Please answer likewise for `CCCCCCN`
inactive

How about `CCOc1cc(NC(C)=O)ccc1C(=O)OC` ?
inactive

And for `COc1cc(C(=S)N2CCOCC2)cc(OC)c1OC` ?
inactive

* * *

experiment: qHTS RealTime-Glo MT Cell Viability Assay in HEK293 cells - 24 hour (AID 1224886); settings: RealTime-Glo luminescence; series mostly up to 76.8 µM; also: top concentration of the series differs between compounds; % is scaled to controls: 0 for no effect and ±100 for the full control effect; nearly all actives have a fitted effect of over 50% in size
Inconclusive results are not listed. Calls of active or inactive are those of the source. The call rests on the fitted dose curve; in most records, active means well fitted cell-killing curve with a large enough effect in the repeat runs; inconclusive means weak or mixed curves, or effect the other way; inactive means flat fitted curve, though single readings scatter.
parameter: activity change, negative = cytotoxicity

GET /values?readout=activity change, negative = cytotoxicity&item= `N[C@@H](CCC(=O)N[C@@H](CS)C(=O)NCC(=O)O)C(=O)O`
7.83% [at 15.8 µM] (inactive)

Follow-up entry: `CN1CCN(CC(=O)N2c3ccccc3C(=O)Nc3cccnc32)CC1`
6.44% [at 6.97 µM] (inactive)

* * *

experiment: qHTS assay to test for compound auto fluorescence at 460 nm (blue) in HepG2 cells (AID 720687); settings: autofluorescence 405/460 nm, 1 h; series mostly up to 91.3 µM; also: % is scaled to controls: 0 for no effect and ±100 for the full control effect
Activity calls are given as the source filed them. Calls come from the whole dose curve; as a rule, active = well fitted curve in the direction sought with a large enough effect in the repeat runs; inconclusive = weak or mixed curves; inactive = flat fitted curve, though single readings scatter.
parameter: fluorescence, % of fluorescent control

Below: 5 compounds and their reported fluorescence, % of fluorescent control.
chemical_smiles=COc1cc(NS(=O)(=O)c2ccc(N)cc2)nc(OC)n1 observed_value="0.0701% [at 18.6 µM] (inactive)"
chemical_smiles=CCCCNc1ccc(C(=O)OCCN(C)C)cc1 observed_value="0.0537% [at 18.6 µM] (inactive)"
chemical_smiles=CC(C)C(=O)OCCc1ccccc1 observed_value=inactive
chemical_smiles=On1nnc2ccccc21 observed_value=inactive
chemical_smiles=COc1ccc(S(=O)(=O)N2c3ccc(Cl)cc3[C@@](O)(c3ccccc3Cl)[C@H]2C(=O)N2CCC[C@@H]2C(N)=O)cc1OC observed_value=inactive

Then there is this compound:
Please report the recorded fluorescence, % of fluorescent control for `CC1(C)S[C@@H]2[C@H](N=CN3CCCCCC3)C(=O)N2[C@H]1C(=O)O` .
inactive

* * *

assay: A CellTox Green Cytotoxicity Assay to monitor cytotoxicity in HEK293 cells - 8 hour (AID 1224884); conditions: CellTox Green fluorescence; series mostly up to 76.8 µM; also: % is scaled to controls: 0 for no effect and ±100 for the full control effect; nearly all actives have a fitted effect of over 35% in size
Records with an inconclusive call do not appear. The source made the active and inactive calls. Calls come from the whole dose curve; as a rule, active = well fitted activation curve with a large enough effect in the repeat runs; inconclusive = weak or mixed curves; inactive = flat fitted curve, though single readings scatter.
parameter: cytotoxicity increase

// worked examples, cytotoxicity increase included
chemical_smiles=CCCCCCOC(=O)CC parameter="cytotoxicity increase" observed_value=inactive
chemical_smiles=CC(C)N(c1ccccc1)C(C)C parameter="cytotoxicity increase" observed_value=inactive
chemical_smiles=O=S(=O)(O)c1cc(O)c2ccc(Nc3ccccc3)cc2c1 parameter="cytotoxicity increase" observed_value=inactive
chemical_smiles=C=C(C)C(=O)OCC(C)(C)COC(=O)C(=C)C parameter="cytotoxicity increase" observed_value=inactive
chemical_smiles=O=S(O)(O)=S parameter="cytotoxicity increase" observed_value="-1.12% [at 6.97 µM] (inactive)"

Now consider a different compound.
Endpoint output: cytotoxicity increase of `COc1cc(N)ccc1C` . Value?
inactive

* * *

assay: qHTS assay to identify small molecule agonists of the sonic hedgehog signaling (Shh) pathway - cell viability counter screen (AID 1259366); conditions: NIH/3T3 Gli1-Luc viability, CellTiter-Fluor, 24 h; series mostly up to 92.4 µM; also: % is scaled to controls: 0 for no effect and ±100 for the full control effect; nearly all actives have a fitted effect of over 50% in size
Results filed as inconclusive are left out. Activity calls are given as the source filed them. Calls come from the whole dose curve; as a rule, active = well fitted cell-killing curve with a large enough effect in the repeat runs; inconclusive = weak or mixed curves, or effect the other way; inactive = flat fitted curve, though single readings scatter.
parameter: viability change, negative = cytotoxic

chemical_smiles=CNC(=O)[C@H]1O[C@@H](n2cnc3c(NCc4cc(Cl)ccc4OCc4cc(C)no4)ncnc32)[C@H](O)[C@@H]1N observed_value=inactive
chemical_smiles=FC(F)(F)c1ccccc1-n1ccnc1 observed_value=inactive
chemical_smiles=CC(=O)N[C@@H](CCC(=O)O)C(=O)O observed_value=inactive

Cited source: PubChem BioAssay (Tox21)
